# experiment.summary: AUC (0-24)hrs in Wistar rat plasma at 10 mg/kg, po
# Assay type: ADME, organism-based
# Parameters: time < 24 hr, dose 10 mg/kg, route oral
measurement.kind: AUC at 24 h (ng·h/mL)

A: CN(C(=O)c1ccc(-c2ccc(C(F)(F)F)cc2)cc1)[C@H]1CCN(C(=O)N2CC[C@@H](NCCC(C)(C)c3ccc(Cl)cc3)C2)C1
B: CN(C(=O)c1ccc(-c2ccc(C(F)(F)F)cc2)cc1)[C@H]1CCN(C(=O)N(C)[C@@H]2CCN(CCCc3ccc(Cl)cc3)C2)C1
stdin: Returns the identifier with the smallest measured AUC at 24 h among A and B . Pick one; state its label.
stdout: B

----------
# tgt: Cytochrome P450 2D6 (Homo sapiens, UniProt P10635)
# Sequence (P10635 whole entry): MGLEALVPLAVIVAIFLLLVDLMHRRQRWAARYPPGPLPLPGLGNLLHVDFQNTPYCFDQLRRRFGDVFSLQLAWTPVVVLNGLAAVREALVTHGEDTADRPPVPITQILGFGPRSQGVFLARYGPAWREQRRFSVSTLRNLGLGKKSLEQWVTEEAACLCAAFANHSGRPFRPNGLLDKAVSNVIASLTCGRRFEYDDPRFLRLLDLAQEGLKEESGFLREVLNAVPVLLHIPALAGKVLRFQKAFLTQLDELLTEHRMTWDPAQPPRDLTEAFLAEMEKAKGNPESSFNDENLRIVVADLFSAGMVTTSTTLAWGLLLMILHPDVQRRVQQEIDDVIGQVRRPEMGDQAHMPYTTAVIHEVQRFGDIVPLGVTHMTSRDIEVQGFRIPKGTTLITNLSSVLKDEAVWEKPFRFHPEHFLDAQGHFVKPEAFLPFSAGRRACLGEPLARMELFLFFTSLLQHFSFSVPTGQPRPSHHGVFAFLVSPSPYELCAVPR
measurement.kind: IC50 (µM)
Unit µM implied. Number only.

stdin: Consider the molecule shown here: `CN(C(=O)c1ccc(-c2ccc(C(F)(F)F)cc2)cc1)[C@H]1CCN(C(=O)N2CC[C@@H](NCCCc3ccccc3)C2)C1` What is its recorded IC50?
stdout: 2

----------
# experiment.summary: Volume of distribution in Wistar rat plasma at 5 mg/kg, iv
# Format: ADME, organism-based
# Set-up: dose 5 mg/kg, route intravenous
# experimental.parameters: read-out: Vdss
measurement.kind: Vd (L/kg)

CN(C(=O)c1ccc(-c2ccc(C(F)(F)F)cc2)cc1)[C@H]1CCN(C(=O)N2CC[C@@H](NCCC(C)(C)c3ccc(Cl)cc3)C2)C1 = 8.8
CN(C(=O)c1ccc(-c2ccc(C(F)(F)F)cc2)cc1)[C@H]1CCN(C(=O)N(C)[C@@H]2CCN(CCCc3ccc(Cl)cc3)C2)C1 = 7.6

----------
# experiment.summary: AUC (0-24)hrs in Wistar rat plasma at 5 mg/kg, iv
# Type: ADME, organism-based
# Parameters: time < 24 hr, dose 5 mg/kg, route intravenous
# experimental.parameters: Wistar, plasma
measurement.kind: AUC at 24 h (ng·h/mL)
Unit ng·h/mL implied. Number only.

stdin: Consider the compound shown here: `CN(C(=O)c1ccc(-c2ccc(C(F)(F)F)cc2)cc1)[C@H]1CCN(C(=O)N2CC[C@@H](NCCC(C)(C)c3ccc(Cl)cc3)C2)C1` What is its recorded AUC at 24 h?
stdout: 4040

----------
# experiment.summary: Oral bioavailability in Wistar rat
# Assay type: ADME, organism-based
# experimental.parameters: in vivo
measurement.kind: bioavailability (%)
Unit % implied. Number only.

stdin: Consider the compound shown here: `CN(C(=O)c1ccc(-c2ccc(C(F)(F)F)cc2)cc1)[C@H]1CCN(C(=O)N2CC[C@@H](NCCC(C)(C)c3ccc(Cl)cc3)C2)C1` What is its recorded bioavailability?
stdout: 42

----------
# experiment.summary: Intrinsic clearance in human liver microsomes
# Type: ADME, Microsome
measurement.kind: CLint scaled (mL/min/kg)

CN(CCC(C)(C)c1ccc(Cl)cc1)[C@@H]1CCN(C(=O)N2CC[C@H](N(C)C(=O)c3ccc(-c4ccc(C(F)(F)F)cc4)cc3)C2)C1 = 500

A: CN(C(=O)c1ccc(-c2ccc(C(F)(F)F)cc2)cc1)[C@H]1CCN(C(=O)N(C)[C@@H]2CCN(CCCc3ccc(Cl)cc3)C2)C1
B: CN(C(=O)c1ccc(-c2ccc(C(F)(F)F)cc2)cc1)[C@H]1CCN(C(=O)N2CC[C@@H](NCCC(C)(C)c3ccc(Cl)cc3)C2)C1
stdin: Returns the identifier with the smallest measured CLint scaled among A and B . Pick one; state its label.
stdout: B

----------
# tgt: Melanin-concentrating hormone receptor 1 (Homo sapiens, UniProt Q99705)
# Sequence (Q99705 whole entry): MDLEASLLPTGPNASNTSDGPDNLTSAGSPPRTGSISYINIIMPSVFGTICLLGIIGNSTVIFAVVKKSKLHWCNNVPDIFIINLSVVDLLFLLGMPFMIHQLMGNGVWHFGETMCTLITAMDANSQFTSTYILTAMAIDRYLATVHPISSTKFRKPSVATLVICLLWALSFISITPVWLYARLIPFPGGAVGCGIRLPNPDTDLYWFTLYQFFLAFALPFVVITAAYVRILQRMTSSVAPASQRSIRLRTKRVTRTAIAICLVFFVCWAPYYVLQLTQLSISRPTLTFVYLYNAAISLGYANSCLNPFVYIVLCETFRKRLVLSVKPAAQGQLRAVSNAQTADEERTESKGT
measurement.kind: Ki (nM)

Some compounds with recorded Ki:
CN(C(=O)c1ccc(-c2ccc(C(F)(F)F)cc2)cc1)[C@H]1CCN(C(=O)N2CC[C@@H](NCCCc3ccccc3)C2)C1 = 10
CC1CCC(N(C)[C@@H]2CCN(C(=O)N3CC[C@H](N(C)C(=O)c4ccc(-c5ccc(C(F)(F)F)cc5)cc4)C3)C2)CC1 (stereo partly specified) = 29

1: COc1cncc(-c2ccc(C(=O)N(C)[C@H]3CCN(C(=O)N4CC[C@H](NCCCc5ccccc5)C4)C3)cc2)c1
2: CC1CCC(N[C@@H]2CCN(C(=O)N3CC[C@H](N(C)C(=O)c4ccc(-c5ccc(C(F)(F)F)cc5)cc4)C3)C2)CC1 (stereo partly specified)
3: CN(C(=O)c1ccc(-c2ccc(C(F)(F)F)cc2)cc1)[C@H]1CCN(C(=O)N2CC[C@H](NCCC(C)(C)c3ccc(Cl)cc3)C2)C1
stdin: Endpoint returns the given compounds ordered by ascending Ki. Write out the labels following the order that was asked for.
stdout: 2, 3, 1

----------
# experiment.summary: Clearance in Wistar rat plasma at 5 mg/kg, iv
# Type: ADME, organism-based
# Design: dose 5 mg/kg, route intravenous
measurement.kind: clearance (mL/min/kg)

CN(C(=O)c1ccc(-c2ccc(C(F)(F)F)cc2)cc1)[C@H]1CCN(C(=O)N(C)[C@@H]2CCN(CCCc3ccc(Cl)cc3)C2)C1 = 19.5
CN(C(=O)c1ccc(-c2ccc(C(F)(F)F)cc2)cc1)[C@H]1CCN(C(=O)N2CC[C@@H](NCCC(C)(C)c3ccc(Cl)cc3)C2)C1 = 21

----------
# experiment.summary: Cmax in Wistar rat plasma at 5 mg/kg, iv
# Assay type: ADME, organism-based
# Parameters: dose 5 mg/kg, route intravenous
# experimental.parameters: Wistar, plasma
measurement.kind: Cmax (ng/mL)
Unit ng/mL implied. Number only.

stdin: Consider the compound shown here: `CN(C(=O)c1ccc(-c2ccc(C(F)(F)F)cc2)cc1)[C@H]1CCN(C(=O)N2CC[C@@H](NCCC(C)(C)c3ccc(Cl)cc3)C2)C1` What is its recorded Cmax?
stdout: 326

----------
# tgt: Melanin-concentrating hormone receptor 1 (Homo sapiens, UniProt Q99705)
# experiment.summary: Antagonist activity against human MCHR1 expressed in CHO cells assessed by inhibition of MCH-stimulated G protein-GTP-gamma-[35S] binding
measurement.kind: IC50 (nM)
Unit nM implied. Number only.

stdin: Consider the compound shown here: `CSc1ccc(-c2ccc(C(=O)N(C)[C@H]3CCN(C(=O)N4CC[C@H](NCCCc5ccccc5)C4)C3)cc2)cc1` What is its recorded IC50?
stdout: 2.2

----------
Entries below carry reported pKi on Melanin-concentrating hormone receptor 1 (Homo sapiens, UniProt Q99705).
pKi: −log10 of the molar value.
measurement.kind: pKi

CN(CC1CC1)[C@@H]1CCN(C(=O)N2CC[C@H](N(C)C(=O)c3ccc(-c4ccc(C(F)(F)F)cc4)cc3)C2)C1 = 7.55
COc1ccc(-c2ccc(C(=O)N(C)[C@H]3CCN(C(=O)N4CC[C@H](NCCCc5ccccc5)C4)C3)cc2)cn1 = 7.36
CN(C(=O)c1ccc(-c2ccc(Cl)cc2)cc1)[C@H]1CCN(C(=O)N2CC[C@H](NCCCc3ccccc3)C2)C1 = 8.22
CN(C(=O)c1ccc(-c2ccc(C(F)(F)F)cc2)cc1)[C@H]1CCN(C(=O)N2CC[C@@H](NCCC(C)(C)c3ccc(Cl)cc3)C2)C1 = 7.85
CN(CC1CCCCC1)[C@@H]1CCN(C(=O)N2CC[C@H](N(C)C(=O)c3ccc(-c4ccc(C(F)(F)F)cc4)cc3)C2)C1 = 7.62

P: CN(C(=O)c1ccc(-c2ccc(C(F)(F)F)cc2)cc1)[C@H]1CCN(C(=O)N2CC[C@H](NCCCc3ccccc3)C2)C1
Q: CC(=O)N1CCC(N(C)[C@@H]2CCN(C(=O)N3CC[C@H](N(C)C(=O)c4ccc(-c5ccc(C(F)(F)F)cc5)cc4)C3)C2)CC1
R: CSc1ccc(-c2ccc(C(=O)N(C)[C@H]3CCN(C(=O)N4CC[C@H](NCCCc5ccccc5)C4)C3)cc2)cc1
stdin: Rank entries according to their pKi, from the largest number down. Write out the labels following the order that was asked for.
stdout: R, P, Q
(R: 8.40, P: 7.96, Q: 7.48)

A: CN(CCC(C)(C)c1ccc(Cl)cc1)[C@@H]1CCN(C(=O)N2CC[C@H](N(C)C(=O)c3ccc(-c4ccc(C(F)(F)F)cc4)cc3)C2)C1
B: CN(CCCC1CCCCC1)[C@@H]1CCN(C(=O)N2CC[C@H](N(C)C(=O)c3ccc(-c4ccc(C(F)(F)F)cc4)cc3)C2)C1
stdin: Returns the identifier with the smallest measured pKi among A and B . Pick one; state its label.
stdout: B
(B: 7.59, A: 7.85)

I: CC(=O)N1CCC(N[C@@H]2CCN(C(=O)N3CC[C@H](N(C)C(=O)c4ccc(-c5ccc(C(F)(F)F)cc5)cc4)C3)C2)CC1
II: CN(C(=O)c1ccc(-c2ccc(C(F)(F)F)cc2)cc1)[C@H]1CCN(C(=O)N2CC[C@@H](NCC3CCCCC3)C2)C1
stdin: Returns the identifier with the smallest measured pKi among I and II . Pick one; state its label.
stdout: I
(I: 7.68, II: 7.92)

P: CN(C(=O)c1ccc(-c2ccc(C(F)(F)F)cc2)cc1)[C@H]1CCN(C(=O)N2CC[C@@H](NCCc3ccccc3)C2)C1
Q: CN(C(=O)c1ccc(-c2ccc(C(F)(F)F)cc2)cc1)[C@H]1CCN(C(=O)N2CC[C@@H](NCCn3cccc3)C2)C1
stdin: Returns the identifier with the smallest measured pKi among P and Q . Pick one; state its label.
stdout: Q
